biological target: partially purified HDAC1 from mouse A20 cells (Mus musculus, UniProt O09106); construct: from mouse A20 cells was used as enzyme source; endogenous in cells; host or cells: mouse A20 cells; assay: HDAC1 activity assay, partially purified enzyme, [3H]acetate-prelabeled histones; assay type: biochemical; settings: partially purified HDAC1 from mouse A20 cells; Fig 4 and text; read-out: HDAC1 Inhibit (IC50)
Sequence (O09106 whole entry): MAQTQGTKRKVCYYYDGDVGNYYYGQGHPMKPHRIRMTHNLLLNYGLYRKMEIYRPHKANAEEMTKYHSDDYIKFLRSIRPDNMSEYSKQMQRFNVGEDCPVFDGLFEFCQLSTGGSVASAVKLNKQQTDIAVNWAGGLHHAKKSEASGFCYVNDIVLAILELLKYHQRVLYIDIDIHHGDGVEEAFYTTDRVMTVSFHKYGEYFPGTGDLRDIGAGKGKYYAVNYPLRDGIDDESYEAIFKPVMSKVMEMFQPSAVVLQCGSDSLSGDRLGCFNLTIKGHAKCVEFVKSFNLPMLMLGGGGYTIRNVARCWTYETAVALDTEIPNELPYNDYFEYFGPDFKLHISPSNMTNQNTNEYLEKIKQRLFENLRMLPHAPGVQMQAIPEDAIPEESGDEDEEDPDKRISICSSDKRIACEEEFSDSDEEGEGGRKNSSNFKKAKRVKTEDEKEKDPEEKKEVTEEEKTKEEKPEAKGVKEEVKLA
pIC50: −log10 of the molar value.

| testSmiles | systemTested | pIC50 |
| --- | --- | --- |
| Cn1c(N2CCN(S(=O)(=O)c3ccc(C(=O)NO)cc3)CC2)nc2ccccc21 | partially purified HDAC1 from mouse A20 cells (Mus musculus, UniProt O09106) | ~4.92 |

----------
Recorded pIC50 by entry
target: partially purified HDAC1 from mouse A20 cells (Mus musculus, UniProt O09106); construct: from mouse A20 cells was used as enzyme source; endogenous in cells; host or cells: mouse A20 cells; assay: HDAC1 activity assay, partially purified enzyme, [3H]acetate-prelabeled histones; assay type: biochemical; conditions: Table 3; partially purified HDAC1; read-out: HDAC1 IC50
pIC50: −log10 of the molar value.
propertyLabel: pIC50

| testSmiles | propertyLabel | endpointResult |
| --- | --- | --- |
| Cn1c(N2CCN(S(=O)(=O)c3ccc(C(=O)NO)cc3)CC2)nc2ccccc21 | pIC50 | 4.91 |
| O=C(NO)c1ccc(S(=O)(=O)N2CCN(c3nc4ccccc4s3)CC2)cc1 | pIC50 | 5.32 |
| O=C(NO)c1cccc(S(=O)(=O)N2CCN(c3nc4ccccc4s3)CC2)c1 | pIC50 | 3.85 |
| Cn1c(N2CCN(S(=O)(=O)c3cccc(C(=O)NO)c3)CC2)nc2ccccc21 | pIC50 | 3.50 |
| O=C(NO)c1ccc(S(=O)(=O)N2CCN(c3nc4ccccc4o3)CC2)cc1 | pIC50 | 5.24 |
| O=C(NO)c1ccc(S(=O)(=O)N2CCN(c3nc4ccccc4[nH]3)CC2)cc1 | pIC50 | 4.91 |
| O=C(NO)c1cccc(S(=O)(=O)N2CCN(c3nc4ccccc4o3)CC2)c1 | pIC50 | 3.67 |

----------
Recorded IC50 by entry
system: HCC4017; assay: MTS viability assay; type: cell-based, human; conditions: Patient A cancer line; MTS, 4 days; read-out: Antiproliferative activity IC50, HCC4017
propertyLabel: IC50 (nM)

| compound | endpointResult |
| --- | --- |
| C/C=C1\NC(=O)[C@H]2CSSCC/C=C/[C@H](CC(=O)N[C@H](C(C)C)C(=O)N2)OC(=O)[C@H](C(C)C)NC1=O [Depsi., Depsipeptide, reference compound] | 6.5 |
| CC(/C=C/C(=O)NO)=C\[C@@H](C)C(=O)c1ccc(N(C)C)cc1 [TSA, trichostatin A, reference compound] | 73 |

----------
system: HBEC-30KT; assay: MTS viability assay; format: cell-based, human; settings: Patient A normal line, 4 days, read-out: Antiproliferative activity IC50, HBEC-30KT
pIC50: −log10 of the molar value.
Recorded pIC50 by entry

| molecule | pIC50 |
| --- | --- |
| C/C=C1\NC(=O)[C@H]2CSSCC/C=C/[C@H](CC(=O)N[C@H](C(C)C)C(=O)N2)OC(=O)[C@H](C(C)C)NC1=O [Depsi., Depsipeptide, reference compound] | 9.05 |
| CC(/C=C/C(=O)NO)=C\[C@@H](C)C(=O)c1ccc(N(C)C)cc1 [TSA, trichostatin A, reference compound] | 6.55 |
